Experiment: Inhibition of Rickettsia prowazekii Methionine aminopeptidase 1
Assay type: single protein
pIC50: −log10 of the molar value.
Please mark satisfied if the recorded pIC50 is equal to or greater than 5, and not satisfied if it falls below.

COMPOUND: COc1ccc(C2=C(c3ccc(OC)cc3)C3(c4ccccc4)C(=O)C2(c2ccccc2)C2C(=O)N(c4ccc(C)cc4)C(=O)C23)cc1 (stereo not drawn)
DISCRETE_LABEL: satisfied
//
COMPOUND: O=C(NCC(c1ccsc1)N1CCCCCC1)c1ccc(C(F)(F)F)cc1 (stereo not drawn)
DISCRETE_LABEL: not satisfied
//
COMPOUND: CC(C)OCc1cc(CN2CCN(c3cccc(Cl)c3)CC2)c(O)c2ncccc12
DISCRETE_LABEL: satisfied
//
COMPOUND: CCCc1c(CC)c(=N)c2ccccc2n1C
DISCRETE_LABEL: satisfied
//
COMPOUND: O=C(O)c1ccc(-c2ccccc2Cl)o1
DISCRETE_LABEL: satisfied
//
COMPOUND: COc1cccc(NC(=O)[C@H](C(C)C)n2c(=O)[nH]c3ccccc3c2=O)c1
DISCRETE_LABEL: not satisfied
//
COMPOUND: COc1ccc(/C=C2\SC(=N)N(c3ccccc3OC)C2=O)cc1
DISCRETE_LABEL: satisfied
//
COMPOUND: c1ccc(Cn2c(/N=N/c3c(Nc4ccccc4)ccc4ccccc34)nc3ccccc32)cc1
DISCRETE_LABEL: satisfied
//
COMPOUND: Cc1ccc(N2C3c4ccccc4N(S(=O)(=O)c4ccc(C)cc4)C2c2ccccc2N3S(=O)(=O)c2ccc(C)cc2)cc1
DISCRETE_LABEL: satisfied

Each recorded value in this set is attributed to ChEMBL document CHEMBL5257084.
